For Candida albicans, measured MIC is reported for the entries below.
Answer format: numeric, µM implied, no suffix.

[
  {
    "compound": "CC[C@H](C)[C@H](NC(=O)[C@H](CCCCN)NC(=O)[C@H](CCCN=C(N)N)NC(=O)[C@H](Cc1c[nH]c2ccccc12)NC(=O)[C@H](Cc1c[nH]c2ccccc12)NC(=O)[C@H](Cc1c[nH]c2ccccc12)NC(=O)[C@H](CCCCN)NC(=O)[C@H](Cc1c[nH]c2ccccc12)NC(=O)[C@@H](N)CCCCN)C(=O)O [KWKWWWRKI]",
    "experimental.target": "Candida albicans",
    "MIC, µM": 4.6
  }
]

Moving on to another compound below.
Quick one: MIC of CC[C@H](C)[C@@H]1NC(=O)CNC(=O)[C@H](CCCCN)NC(=O)[C@H](Cc2ccc(O)cc2)NC(=O)[C@@H]2CSSC[C@H](NC1=O)C(=O)N[C@@H](Cc1ccc(O)cc1)C(=O)N[C@@H](CCCCN)C(=O)N[C@@H](CCCCN)C(=O)N[C@H](C(=O)N[C@@H](CCCCN)C(N)=O)CSSC[C@H](NC(=O)[C@H](Cc1c[nH]c3ccccc13)NC(=O)[C@@H](N)CCCN=C(N)N)C(=O)N[C@@H](Cc1ccccc1)C(=O)N[C@@H](CCCCN)C(=O)N[C@@H](C(C)C)C(=O)N2 [RWCFKVCYKGICYKKCK] ? 10.5
